Assay: In vivo biodegradability assay (lipid concentration in mouse liver by LC-MS)
Parameters: species or system mice
Conditions: Table 1, 0.1 mpk, BLOQ: below level of quantification
METRIC_NAME: In vivo degradability (ng tissue) at 48 h 0.1 mpk

Examples with their reported In vivo degradability (ng tissue) at 48 h 0.1 mpk follow.
1. CCCCCCCCC(=O)OCC(COC(=O)CCCCCCCC)OC(=O)CCCC(CCCC(=O)OC(COC(=O)CCCCCCCC)COC(=O)CCCCCCCC)OC(=O)CCCN(C)C.Cl
BLOQ
2. CN(C)CCCSC(=O)N(CCCC(=O)OC(COC(=O)CCCC1CCCCC1)COC(=O)CCCC1CCCCC1)CCCC(=O)OC(COC(=O)CCCC1CCCCC1)COC(=O)CCCC1CCCCC1
BLOQ
3. CC(CC1CCCCC1)C(=O)OCC(COC(=O)C(C)CC1CCCCC1)OC(=O)CCCN(CCCC(=O)OC(COC(=O)C(C)CC1CCCCC1)COC(=O)C(C)CC1CCCCC1)C(=O)SCCCN(C)C (stereo not drawn)
BLOQ
4. CCCCCCCCC(=O)OCC(COC(=O)CCCCCCCC)OC(=O)CN(CC(=O)OC(COC(=O)CCCCCCCC)COC(=O)CCCCCCCC)C(=O)SCCCN(C)C
BLOQ
5. CCCCCCCCC(=O)OCC(COC(=O)CCCCCCCC)OC(=O)CCCN(CCCC(=O)OC(COC(=O)CCCCCCCC)COC(=O)CCCCCCCC)C(=O)SCCCN(C)C
BLOQ

Shifting focus to the molecule that follows.
-- ask Report measured In vivo degradability (ng tissue) at 48 h 0.1 mpk; entry is CCCCCCC(C)C(=O)OCC(COC(=O)C(C)CCCCCC)OC(=O)CCCN(CCCC(=O)OC(COC(=O)C(C)CCCCCC)COC(=O)C(C)CCCCCC)C(=O)SCCCN(C)C (stereo not drawn)
-- reply 639 ng tissue
